Each entry below carries its recorded normalized RNA/DNA level without ligand (log10).
B1: library; a variant is named by its letters at N, in order (parent)
chain: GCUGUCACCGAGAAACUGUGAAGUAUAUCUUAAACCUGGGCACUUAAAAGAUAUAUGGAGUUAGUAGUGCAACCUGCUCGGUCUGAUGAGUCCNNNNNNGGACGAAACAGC

variants of: B1; assay: normalized RNA/DNA level without ligand (relative to sTRSVctl = 100) (log10 (% of sTRSVctl)); HEK293T; ligand: cyclic di-GMP (c-di-GMP-II aptamer); higher = less ribozyme self-cleavage, higher mRNA level; details: reporter: mCherry (pCS4076), ligand present: no
PROPERTY MEASURED: normalized RNA/DNA level without ligand (log10)

PRIMARY SEQUENCE | READOUT VALUE
GCUGUCACCGAGAAACUGUGAAGUAUAUCUUAAACCUGGGCACUUAAAAGAUAUAUGGAGUUAGUAGUGCAACCUGCUCGGUCUGAUGAGUCCCCGGUGGGACGAAACAGC | 1.27
GCUGUCACCGAGAAACUGUGAAGUAUAUCUUAAACCUGGGCACUUAAAAGAUAUAUGGAGUUAGUAGUGCAACCUGCUCGGUCUGAUGAGUCCGAAUUUGGACGAAACAGC | 1.65
GCUGUCACCGAGAAACUGUGAAGUAUAUCUUAAACCUGGGCACUUAAAAGAUAUAUGGAGUUAGUAGUGCAACCUGCUCGGUCUGAUGAGUCCAGGGUAGGACGAAACAGC | 1.53
GCUGUCACCGAGAAACUGUGAAGUAUAUCUUAAACCUGGGCACUUAAAAGAUAUAUGGAGUUAGUAGUGCAACCUGCUCGGUCUGAUGAGUCCGUUCCGGGACGAAACAGC | 1.82
GCUGUCACCGAGAAACUGUGAAGUAUAUCUUAAACCUGGGCACUUAAAAGAUAUAUGGAGUUAGUAGUGCAACCUGCUCGGUCUGAUGAGUCCGCAAUGGGACGAAACAGC | 1.45
GCUGUCACCGAGAAACUGUGAAGUAUAUCUUAAACCUGGGCACUUAAAAGAUAUAUGGAGUUAGUAGUGCAACCUGCUCGGUCUGAUGAGUCCCGGCGCGGACGAAACAGC | 1.8
GCUGUCACCGAGAAACUGUGAAGUAUAUCUUAAACCUGGGCACUUAAAAGAUAUAUGGAGUUAGUAGUGCAACCUGCUCGGUCUGAUGAGUCCGAGGUUGGACGAAACAGC | 1.73
GCUGUCACCGAGAAACUGUGAAGUAUAUCUUAAACCUGGGCACUUAAAAGAUAUAUGGAGUUAGUAGUGCAACCUGCUCGGUCUGAUGAGUCCUGUCACGGACGAAACAGC | 1.75
GCUGUCACCGAGAAACUGUGAAGUAUAUCUUAAACCUGGGCACUUAAAAGAUAUAUGGAGUUAGUAGUGCAACCUGCUCGGUCUGAUGAGUCCUAUUACGGACGAAACAGC | 1.77
GCUGUCACCGAGAAACUGUGAAGUAUAUCUUAAACCUGGGCACUUAAAAGAUAUAUGGAGUUAGUAGUGCAACCUGCUCGGUCUGAUGAGUCCCAGGGUGGACGAAACAGC | 1.67
GCUGUCACCGAGAAACUGUGAAGUAUAUCUUAAACCUGGGCACUUAAAAGAUAUAUGGAGUUAGUAGUGCAACCUGCUCGGUCUGAUGAGUCCGGUUCCGGACGAAACAGC | 1.86
GCUGUCACCGAGAAACUGUGAAGUAUAUCUUAAACCUGGGCACUUAAAAGAUAUAUGGAGUUAGUAGUGCAACCUGCUCGGUCUGAUGAGUCCCAUGAUGGACGAAACAGC | 1.57
GCUGUCACCGAGAAACUGUGAAGUAUAUCUUAAACCUGGGCACUUAAAAGAUAUAUGGAGUUAGUAGUGCAACCUGCUCGGUCUGAUGAGUCCGCUUGAGGACGAAACAGC | 1.54
GCUGUCACCGAGAAACUGUGAAGUAUAUCUUAAACCUGGGCACUUAAAAGAUAUAUGGAGUUAGUAGUGCAACCUGCUCGGUCUGAUGAGUCCCAUCCUGGACGAAACAGC | 1.6
GCUGUCACCGAGAAACUGUGAAGUAUAUCUUAAACCUGGGCACUUAAAAGAUAUAUGGAGUUAGUAGUGCAACCUGCUCGGUCUGAUGAGUCCUGUUACGGACGAAACAGC | 1.74
GCUGUCACCGAGAAACUGUGAAGUAUAUCUUAAACCUGGGCACUUAAAAGAUAUAUGGAGUUAGUAGUGCAACCUGCUCGGUCUGAUGAGUCCAACCUGGGACGAAACAGC | 1.57
GCUGUCACCGAGAAACUGUGAAGUAUAUCUUAAACCUGGGCACUUAAAAGAUAUAUGGAGUUAGUAGUGCAACCUGCUCGGUCUGAUGAGUCCUUGUCCGGACGAAACAGC | 1.8
GCUGUCACCGAGAAACUGUGAAGUAUAUCUUAAACCUGGGCACUUAAAAGAUAUAUGGAGUUAGUAGUGCAACCUGCUCGGUCUGAUGAGUCCGGGGUAGGACGAAACAGC | 1.52
GCUGUCACCGAGAAACUGUGAAGUAUAUCUUAAACCUGGGCACUUAAAAGAUAUAUGGAGUUAGUAGUGCAACCUGCUCGGUCUGAUGAGUCCGUGUUGGGACGAAACAGC | 1.59
GCUGUCACCGAGAAACUGUGAAGUAUAUCUUAAACCUGGGCACUUAAAAGAUAUAUGGAGUUAGUAGUGCAACCUGCUCGGUCUGAUGAGUCCCCAAUGGGACGAAACAGC | 1.23
GCUGUCACCGAGAAACUGUGAAGUAUAUCUUAAACCUGGGCACUUAAAAGAUAUAUGGAGUUAGUAGUGCAACCUGCUCGGUCUGAUGAGUCCUCAAUUGGACGAAACAGC | 1.58
GCUGUCACCGAGAAACUGUGAAGUAUAUCUUAAACCUGGGCACUUAAAAGAUAUAUGGAGUUAGUAGUGCAACCUGCUCGGUCUGAUGAGUCCGUGGAUGGACGAAACAGC | 1.52
GCUGUCACCGAGAAACUGUGAAGUAUAUCUUAAACCUGGGCACUUAAAAGAUAUAUGGAGUUAGUAGUGCAACCUGCUCGGUCUGAUGAGUCCCGCGGCGGACGAAACAGC | 1.74
GCUGUCACCGAGAAACUGUGAAGUAUAUCUUAAACCUGGGCACUUAAAAGAUAUAUGGAGUUAGUAGUGCAACCUGCUCGGUCUGAUGAGUCCGCGAUCGGACGAAACAGC | 1.16
GCUGUCACCGAGAAACUGUGAAGUAUAUCUUAAACCUGGGCACUUAAAAGAUAUAUGGAGUUAGUAGUGCAACCUGCUCGGUCUGAUGAGUCCGUAACAGGACGAAACAGC | 1.68
GCUGUCACCGAGAAACUGUGAAGUAUAUCUUAAACCUGGGCACUUAAAAGAUAUAUGGAGUUAGUAGUGCAACCUGCUCGGUCUGAUGAGUCCUGCUUCGGACGAAACAGC | 1.77
GCUGUCACCGAGAAACUGUGAAGUAUAUCUUAAACCUGGGCACUUAAAAGAUAUAUGGAGUUAGUAGUGCAACCUGCUCGGUCUGAUGAGUCCACAACGGGACGAAACAGC | 1.46
GCUGUCACCGAGAAACUGUGAAGUAUAUCUUAAACCUGGGCACUUAAAAGAUAUAUGGAGUUAGUAGUGCAACCUGCUCGGUCUGAUGAGUCCGUAGGGGGACGAAACAGC | 1.55
GCUGUCACCGAGAAACUGUGAAGUAUAUCUUAAACCUGGGCACUUAAAAGAUAUAUGGAGUUAGUAGUGCAACCUGCUCGGUCUGAUGAGUCCUGACAAGGACGAAACAGC | 1.69
GCUGUCACCGAGAAACUGUGAAGUAUAUCUUAAACCUGGGCACUUAAAAGAUAUAUGGAGUUAGUAGUGCAACCUGCUCGGUCUGAUGAGUCCACCGAGGGACGAAACAGC | 1.57
GCUGUCACCGAGAAACUGUGAAGUAUAUCUUAAACCUGGGCACUUAAAAGAUAUAUGGAGUUAGUAGUGCAACCUGCUCGGUCUGAUGAGUCCAACAAAGGACGAAACAGC | 1.45
GCUGUCACCGAGAAACUGUGAAGUAUAUCUUAAACCUGGGCACUUAAAAGAUAUAUGGAGUUAGUAGUGCAACCUGCUCGGUCUGAUGAGUCCCCGCAGGGACGAAACAGC | 1.54
GCUGUCACCGAGAAACUGUGAAGUAUAUCUUAAACCUGGGCACUUAAAAGAUAUAUGGAGUUAGUAGUGCAACCUGCUCGGUCUGAUGAGUCCCCCCUCGGACGAAACAGC | 1.73
GCUGUCACCGAGAAACUGUGAAGUAUAUCUUAAACCUGGGCACUUAAAAGAUAUAUGGAGUUAGUAGUGCAACCUGCUCGGUCUGAUGAGUCCGAUGAAGGACGAAACAGC | 1.45
GCUGUCACCGAGAAACUGUGAAGUAUAUCUUAAACCUGGGCACUUAAAAGAUAUAUGGAGUUAGUAGUGCAACCUGCUCGGUCUGAUGAGUCCACUUGCGGACGAAACAGC | 1.69
GCUGUCACCGAGAAACUGUGAAGUAUAUCUUAAACCUGGGCACUUAAAAGAUAUAUGGAGUUAGUAGUGCAACCUGCUCGGUCUGAUGAGUCCGUCGGGGGACGAAACAGC | 1.73
GCUGUCACCGAGAAACUGUGAAGUAUAUCUUAAACCUGGGCACUUAAAAGAUAUAUGGAGUUAGUAGUGCAACCUGCUCGGUCUGAUGAGUCCUGCCUAGGACGAAACAGC | 1.73
GCUGUCACCGAGAAACUGUGAAGUAUAUCUUAAACCUGGGCACUUAAAAGAUAUAUGGAGUUAGUAGUGCAACCUGCUCGGUCUGAUGAGUCCCCAGUUGGACGAAACAGC | 1.69
GCUGUCACCGAGAAACUGUGAAGUAUAUCUUAAACCUGGGCACUUAAAAGAUAUAUGGAGUUAGUAGUGCAACCUGCUCGGUCUGAUGAGUCCCAGGCAGGACGAAACAGC | 1.62
GCUGUCACCGAGAAACUGUGAAGUAUAUCUUAAACCUGGGCACUUAAAAGAUAUAUGGAGUUAGUAGUGCAACCUGCUCGGUCUGAUGAGUCCACAUACGGACGAAACAGC | 1.57
GCUGUCACCGAGAAACUGUGAAGUAUAUCUUAAACCUGGGCACUUAAAAGAUAUAUGGAGUUAGUAGUGCAACCUGCUCGGUCUGAUGAGUCCCAGGACGGACGAAACAGC | 1.71
GCUGUCACCGAGAAACUGUGAAGUAUAUCUUAAACCUGGGCACUUAAAAGAUAUAUGGAGUUAGUAGUGCAACCUGCUCGGUCUGAUGAGUCCCUCCUUGGACGAAACAGC | 1.61
GCUGUCACCGAGAAACUGUGAAGUAUAUCUUAAACCUGGGCACUUAAAAGAUAUAUGGAGUUAGUAGUGCAACCUGCUCGGUCUGAUGAGUCCACGCGUGGACGAAACAGC | 1.5
GCUGUCACCGAGAAACUGUGAAGUAUAUCUUAAACCUGGGCACUUAAAAGAUAUAUGGAGUUAGUAGUGCAACCUGCUCGGUCUGAUGAGUCCUUAGGUGGACGAAACAGC | 1.7

Data origin: the supplement of paper PMC6757056
